Experiment: Pharmacokinetic evaluation: plasma concentration in dogs
Assay type: in vivo, Male beagle dogs
Settings: dog, iv 10 mg/kg, trapezoidal rule
PARAMETER: AUC (µg·h/mL)
Reply with just the number (in µg·h/mL).

Would you mind telling me what AUC value was observed for CC(C)CP(=O)(O)C/C(=C\C1CCCCC1)C(=O)O [Compound No. 2] ? 144

* * *

Experiment: Pharmacokinetic evaluation: plasma concentration in rats
Assay type: in vivo, Male SD rats
Conditions: rat, plasma; iv 10 mg/kg (cilastatin dose not given), 1/2 h
// label = met if concentration at 0.5 h is not less than 40000 ng/mL, otherwise not met

Please tell me: is the compound CC(C)CP(=O)(O)C/C(=C\CCCSC[C@H](N)C(=O)O)C(=O)O [Compound No. 23] at or over 40000 ng/mL in terms of concentration at 0.5 h? not met

Quick check, concentration at 0.5 h >= 40000 ng/mL? O=C(O)/C(=C/C1CCCCC1)CP(=O)(O)CC1CCCC1 [Compound No. 17] met

Confirm if concentration at 0.5 h reported for the compound CC(C)CP(=O)(O)C/C(=C\C1CC1)C(=O)O [Compound No. 10] is 40000 ng/mL or above. not met

Quick check, concentration at 0.5 h >= 40000 ng/mL? CC(C)CP(=O)(O)C/C(=C\C1CCCCC1)C(=O)O [Compound No. 2] met

hey, is concentration at 0.5 h for this one >= 40000 ng/mL? O=C(O)/C(=C/C1CCCCC1)CP(=O)(O)CC1CCCCC1 [Compound No. 28] not met

Does the compound CC(C)CP(=O)(O)C/C(=C\CCCC(=O)O)C(=O)O [Compound No. 14] have recorded concentration at 0.5 h that is 40000 ng/mL or more? not met

In plain terms: is recorded concentration at 0.5 h at least 40000 ng/mL for CC1(C)CC1P(=O)(O)C/C(=C\C1CCCCC1)C(=O)O (stereo not shown) [Compound No. 5] ? not met

* * *

Test: Pharmacokinetic evaluation: plasma concentration in dogs
Format: in vivo, Male beagle dogs
Settings: dog, po 10 mg/kg, 24 h
PARAMETER: concentration at 24 h (ng/mL)
Just the number in ng/mL, nothing appended.

I'd like to know its concentration at 24 h. The molecule in question is CC(C)CP(=O)(O)C/C(=C\C1CCCCC1)C(=O)O [Compound No. 2] 700

* * *

Test: Pharmacokinetic evaluation: plasma concentration in rats
Type: in vivo, Male SD rats
Settings: rat, plasma; iv 10 mg/kg (cilastatin dose not given), 1 h; N.D.: below the detection limit
PARAMETER: concentration at 1 h (ng/mL)
// note: answer is a bare numeric in ng/mL

What value of measured concentration at 1 h is listed for CC(C)CP(=O)(O)C/C(=C\CCCSC[C@H](N)C(=O)O)C(=O)O [Compound No. 23] ? 4200

# input molecule: O=C(O)/C(=C/C1CCCCC1)CP(=O)(O)CC1CCCCC1 [Compound No. 28] ; wanted: its concentration at 1 h 18300

I would be grateful if you could share the reported concentration at 1 h for CC1(C)CC1P(=O)(O)C/C(=C\C1CCCCC1)C(=O)O (stereo not shown) [Compound No. 5] . 24400

Can you share its concentration at 1 h? I mean this molecule: CC(C)CP(=O)(O)C/C(=C\C1CCCCC1)C(=O)O [Compound No. 2] 42400

May I ask what concentration at 1 h has been recorded for CC(C)CP(=O)(O)C/C(=C\CCCC(=O)O)C(=O)O [Compound No. 14] ? 1400

Value lookup for concentration at 1 h; key = O=C(O)/C(=C/C1CCCCC1)CP(=O)(O)CC1CCCC1 [Compound No. 17] 38000

Requested read-out: concentration at 1 h. Entry: CC(C)CP(=O)(O)C/C(=C\C1CC1)C(=O)O [Compound No. 10] 12800
